Target: Fuc(a1-2)Gal(b1-4)[Fuc(a1-3)]GlcNAc(b1-3)GalNAc
Experiment: glycan array binding signal (z-score within array); higher = stronger binding
Settings: glycan notation: IUPAC condensed, linker removed
Many of the other results were omitted from the sample, so the strongest signals are more common in it than they were.
Could you label it yes if measured glycan array binding signal (z-score) is 4 or higher, and no otherwise?

* LngA (Escherichia coli) (protein) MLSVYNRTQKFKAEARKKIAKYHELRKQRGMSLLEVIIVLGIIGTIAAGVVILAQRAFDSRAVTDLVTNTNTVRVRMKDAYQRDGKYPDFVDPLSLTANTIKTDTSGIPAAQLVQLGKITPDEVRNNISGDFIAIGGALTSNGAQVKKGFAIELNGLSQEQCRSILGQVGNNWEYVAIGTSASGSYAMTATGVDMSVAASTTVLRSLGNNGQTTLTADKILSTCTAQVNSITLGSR | no
* Epa3 (Candida glabrata), Q6VBI8_CANGB (protein) MGSSHHHHHHSSGLVPRGSHMNDLGFSLFEKRELSSQNPFGYPIGCSPQDVAIIPGLTMELYSYPIVSGTPPNCYDASYVDPEYPRTGYLKRKMVGKSTGVTGNLNYKYSVEKACMVKYGNLPAGYNYNEPLTVSNFTMILYGYFKAQTTGLHTFFVNADDLLYINFGAGNAFDCCKREDSKTKLGEYVAYDIWHVDSSKNKVSLFLEKDLYYPIRMFFNNIGKDSSLDLSFSVNGATDQISDFSGYLYSVPDQPDTCPAHIGYDTTCR | no
* Pbx2CASH domain (Cryptococcus neoformans) (protein) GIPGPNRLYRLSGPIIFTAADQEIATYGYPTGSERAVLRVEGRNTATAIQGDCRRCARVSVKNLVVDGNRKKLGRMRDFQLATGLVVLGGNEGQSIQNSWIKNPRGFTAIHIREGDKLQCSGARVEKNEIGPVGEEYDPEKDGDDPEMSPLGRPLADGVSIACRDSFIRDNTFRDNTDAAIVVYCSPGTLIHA | yes
* Epa20 (Candida glabrata) (protein) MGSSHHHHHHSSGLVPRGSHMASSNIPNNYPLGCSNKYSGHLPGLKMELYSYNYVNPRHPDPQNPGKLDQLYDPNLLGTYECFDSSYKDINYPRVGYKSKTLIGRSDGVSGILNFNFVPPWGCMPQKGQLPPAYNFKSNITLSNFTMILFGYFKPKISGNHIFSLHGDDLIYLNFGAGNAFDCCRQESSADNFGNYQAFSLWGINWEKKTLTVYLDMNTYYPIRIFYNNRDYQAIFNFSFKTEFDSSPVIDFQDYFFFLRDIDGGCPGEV | yes
